Protocol conditions: 10 μM initial concentration; Without NADPH; 60 min
The reader will find reported Test Article remaining, percent of initial concentration values listed item by item below.
// return numeric value only (unit: %, not printed)

Lab note: measured Test Article remaining, percent of initial concentration of `CC1(C)CCSc2ccc(C#Cc3ccc(C(=O)O)cn3)cc21` was 102

----------
Protocol conditions: 10 μM initial concentration; Without NADPH; 15 min
Metric name: Test Article remaining, percent of initial concentration
Hey, just the number and the unit after it is fine.

Lab note: measured Test Article remaining, percent of initial concentration of `CC1(C)CCSc2ccc(C#Cc3ccc(C(=O)O)cn3)cc21` was 102%

Lab note: measured Test Article remaining, percent of initial concentration of `CCOC(=O)c1ccc(C#Cc2ccc3c(c2)C(C)(C)CCS3)nc1` was 21.9%

Lab note: measured Test Article remaining, percent of initial concentration of CCOC(=O)c1ccc(C#Cc2ccc3c(c2)C(C)(C)CC(OC(=O)c2ccccc2)S3)nc1 (stereo not shown) was 87.0%

Lab note: measured Test Article remaining, percent of initial concentration of CCOC(=O)c1ccc(C#Cc2ccc3c(c2)C(C)(C)CC[S+]3[O-])nc1 (stereo not shown) [Tazarotene sulfoxide] was 30.4%

----------
The reader will find reported Test Article remaining, percent of initial concentration values listed item by item below.
Protocol conditions: 1 μM initial concentration; Without NADPH; 15 min
// return numeric value only (unit: %, not printed)

Past entries and their recorded results:
Molecule	Test value
CCOC(=O)c1ccc(C#Cc2ccc3c(c2)C(C)(C)CCS3)nc1 [Tazarotene]	22.0
CC1(C)CCSc2ccc(C#Cc3ccc(C(=O)O)cn3)cc21 [Tazarotenic acid]	100

Lab note: measured Test Article remaining, percent of initial concentration of CCOC(=O)c1ccc(C#Cc2ccc3c(c2)C(C)(C)CC(OC(=O)c2ccccc2)S3)nc1 (stereo not shown) [Compound 4] was 17.3

Lab note: measured Test Article remaining, percent of initial concentration of CCOC(=O)c1ccc(C#Cc2ccc3c(c2)C(C)(C)CC[S+]3[O-])nc1 (stereo not shown) [Tazarotene sulfoxide] was 27.9

----------
Protocol conditions: HLM; 10 μM; Without NADPH
Metric name: k constant
Would you mind answering with just the numeric figure?

Compound	k constant
CCOC(=O)c1ccc(C#Cc2ccc3c(c2)C(C)(C)CC[S+]3[O-])nc1 (stereo not shown) [Tazarotene sulfoxide]	−0.0763
CCOC(=O)c1ccc(C#Cc2ccc3c(c2)C(C)(C)CC(OC(=O)c2ccccc2)S3)nc1 (stereo not shown) [Compound 4]	−0.0146
CCOC(=O)c1ccc(C#Cc2ccc3c(c2)C(C)(C)CCS3)nc1 [Tazarotene]	−0.0914

Please turn your attention to the following entry.
Lab note: measured k constant of CC1(C)CCSc2ccc(C#Cc3ccc(C(=O)O)cn3)cc21 [Tazarotenic acid] was 0.0006

----------
The reader will find reported Test Article remaining, percent of initial concentration values listed item by item below.
Protocol conditions: 10 μM initial concentration; Complete (with NADPH); 30 min
// return numeric value only (unit: %, not printed)

Past entries and their recorded results:
Compound	Test value
CCOC(=O)c1ccc(C#Cc2ccc3c(c2)C(C)(C)CCS3)nc1 [Tazarotene]	6.55
CCOC(=O)c1ccc(C#Cc2ccc3c(c2)C(C)(C)CC[S+]3[O-])nc1 (stereo not shown) [Tazarotene sulfoxide]	11.4
CCOC(=O)c1ccc(C#Cc2ccc3c(c2)C(C)(C)CC(OC(=O)c2ccccc2)S3)nc1 (stereo not shown) [Compound 4]	73.4

Please turn your attention to the following entry.
Lab note: measured Test Article remaining, percent of initial concentration of CC1(C)CCSc2ccc(C#Cc3ccc(C(=O)O)cn3)cc21 [Tazarotenic acid] was 88.6
